target: Nuclear receptor subfamily 1 group I member 3 (Homo sapiens) (UniProt Q14994); test: qHTS for Constitutive Androstane Receptor (CAR) Agonist screened against the NCATS CANVASS Library (AID 1347373); conditions: HepG2-hCAR-CYP2B6 luciferase reporter, ONE-Glo luminescence; series mostly up to 46.1 µM;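 note: every well also contained 1.5 µM PK11195 alongside the test compound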
Sequence (Q14994 whole entry, looked up): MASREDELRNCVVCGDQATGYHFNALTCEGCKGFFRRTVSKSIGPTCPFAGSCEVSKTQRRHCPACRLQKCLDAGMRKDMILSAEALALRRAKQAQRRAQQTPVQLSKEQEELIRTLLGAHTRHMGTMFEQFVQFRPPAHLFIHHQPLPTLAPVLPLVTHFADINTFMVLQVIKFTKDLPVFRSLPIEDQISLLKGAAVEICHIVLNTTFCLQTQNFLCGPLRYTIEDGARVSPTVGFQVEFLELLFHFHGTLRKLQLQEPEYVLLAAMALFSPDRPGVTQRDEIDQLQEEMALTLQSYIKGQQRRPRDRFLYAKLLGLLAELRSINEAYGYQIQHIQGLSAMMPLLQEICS
Inconclusive results are not listed. Calls of active or inactive are those of the source. Calls come from the whole dose curve; as a rule, active = well fitted activation curve with a large enough effect; inconclusive = small, poorly fitted or top-dose-only effect; inactive = no such curve, though single readings can be large or run the other way.
Choose one outcome from this list and give only that: active, inactive

Below are worked cases with known answers.
O=C(OC[C@H]1O[C@@H](OC(=O)c2cc(O)c(O)c(O)c2)[C@H](OC(=O)c2cc(O)c(O)c(O)c2)[C@@H](OC(=O)c2cc(O)c(O)c(O)c2)[C@@H]1OC(=O)c1cc(O)c(O)c(O)c1)c1cc(O)c(O)c(O)c1
inactive
CC(C)=CCCC(C)(O)[C@H]1CC=C(C)C(O)C1 (some centres not stated)
inactive
C[n+]1cc2cc(C(N)=O)[nH]c3c(=N)c(Cl)c(N)c1c23
inactive

// query Recorded test call requested for C=C1C(=O)O[C@H]2[C@H]1CCC(C)=C1CC[C@@](C)(O)[C@@H]12
// result inactive

// query Recorded test call requested for COc1cc2c(cc1OC)[C@@H](c1ccc3c(c1)OCO3)C(C)C(C)C2=O (some centres not stated)
// result active

// query Recorded test call requested for C=C1CCC2C(C)(C(=O)O)CCC(CC/C(C)=C/C(=O)NC(CCC(N)=O)C(=O)O)[C@@]2(C)C1 (some centres not stated)
// result inactive

// query Recorded test call requested for C=C1[C@@]2(C)CC3C4(C)CCC(O)C(C)(C)C4CCC3(C)[C@]1(C(=O)OC)C(=O)C(C)(O)C2=O (some centres not stated)
// result inactive

// query Recorded test call requested for C[C@@]1(CCC(=O)Nc2c(O)ccc(C(=O)O)c2O)C(=O)C=C[C@]23C[C@H]4C[C@H](O[C@@]4(C)C2)C31 (some centres not stated)
// result inactive

// query Recorded test call requested for C/C1=C/[C@@H](C)[C@H](O)[C@@H](O)/C=C/CC/C=C/C(=O)O[C@@H]1[C@H](C)C(=O)CCCC1CC(=O)NC(=O)C1
// result inactive

// query Recorded test call requested for CC(=O)c1c(C)cc2c(c1O)C(=O)c1c(O)cc(O)cc1C2=O
// result inactive

// query Recorded test call requested for CC(C)[C@@H]1CC(=O)c2coc3c2[C@H]1C[C@@H](C)C3=O
// result inactive

Data credit: PubChem BioAssay (NCATS)
